meta.source: patent US5646313A

biological target: enkephalinase; experiment: in vitro assay of the enkephalinase-inhibitory activity (J. Pharmac. Exp. Ther., 1987, 243, 666); type: biochemical; conditions: (Z) isomer, read-out: (Z) Isomer IC50
Measured Metric: pIC50
One number for each entry, as −log10 of the molar value.

-- ask Sample O=C(O)CCNC(=O)/C(=C/c1ccccc1)CS — what was its pIC50?
-- reply 6.77

====

target: enkephalinase; assay: in vitro assay of the enkephalinase-inhibitory activity (J. Pharmac. Exp. Ther., 1987, 243, 666); assay type: biochemical; conditions: (E) isomer, read-out: (E) Isomer IC50
Please go through the items and note down their pIC50.
One number for each entry, as −log10 of the molar value.

Recorded pIC50, per entry:
CC(=O)SC/C(=C/c1ccc2c(c1)OCO2)C(=O)NCCC(=O)OCc1ccccc1
7.72
O=C(O)CCNC(=O)/C(=C\c1ccc(Oc2ccccc2)cc1)CS
8.24
O=C(O)CCNC(=O)/C(=C\c1ccccc1)CS
8.55
O=C(O)CCNC(=O)/C(=C\c1cc(F)cc(F)c1)CS
8.23
CC(CC(=O)O)NC(=O)/C(=C\c1ccccc1)CS (racemic)
8.15
O=C(O)CCNC(=O)/C(=C\c1ccc(C(F)(F)F)cc1)CS
7.92
O=C(O)CCNC(=O)/C(=C\c1ccc(-c2ccccc2)cc1)CS
8.12
COc1ccc(/C=C(/CS)C(=O)NCCC(=O)O)cc1
8.57

// input: 2 compounds below; output: pIC50 for each
1. CC(CNC(=O)/C(=C\c1ccccc1)CS)C(=O)O (racemic)
2. CCOc1ccc(/C=C(/CS)C(=O)NCCC(=O)O)cc1

-- reply
[8.00, 7.93]

-- ask Can you look up pIC50 on enkephalinase for O=C(O)CCCNC(=O)/C(=C\c1ccccc1)CS ?
-- reply 8.19
